target: T1, recombinant TST-Galphai1 protein bound to GTPgammaS (human, UniProt P63096 1-354, Loaded non-covalently with GTPgammaS (10 uM). The N-terminal TwinStreptag and TEV linker are not in the letters.); assay: TR-FRET (HTRF) saturation binding; VH-d2 titrated on 1 nM TST-Galphai1 with 10 uM GTPgS, anti-TST-Lumi4-Tb donor; mean Kd
T1 construct: Same polypeptide as m15 and m16; here loaded with an excess of GTPgS (10 uM); Produced in Sf9 insect cells; also called Galphai1 protein loaded with GTPgS
T1 sequence (P63096 whole entry): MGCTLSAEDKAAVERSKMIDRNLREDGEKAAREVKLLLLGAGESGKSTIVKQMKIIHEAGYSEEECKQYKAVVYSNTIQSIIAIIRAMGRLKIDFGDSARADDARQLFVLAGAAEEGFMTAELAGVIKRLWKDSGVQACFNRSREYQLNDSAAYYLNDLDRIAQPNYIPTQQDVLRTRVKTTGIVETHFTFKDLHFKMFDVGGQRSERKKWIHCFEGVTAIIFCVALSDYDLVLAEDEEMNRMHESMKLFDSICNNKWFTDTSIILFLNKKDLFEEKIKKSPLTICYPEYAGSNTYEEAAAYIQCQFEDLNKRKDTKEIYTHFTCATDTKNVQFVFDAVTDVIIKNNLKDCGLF
pKd: −log10 of the molar value.
quantity_kind: pKd

>  <binder>
VH F4 (VHH, labeled with the acceptor fluorescent probe d2 (site not stated), Made in E. coli; also called anti-Galphai VH antibody-d2) VHH: EVQLVESGGGLVQPGGSLRLSCAASGFTFSSYYMNWVRQAPGKGLEWVSSIYNGDGDTDYSDSVKGRFTISRDNAKNTVYLEMSDLKVQDTAIYYCNAYDGTLLRDYWGQGTQVTVSS

>  <quantitative_readout>
7.51

$$$$
>  <binder>
VH G6 (VHH, labeled with the acceptor fluorescent probe d2 (site not stated), Made in E. coli; also called anti-Galphai VH antibody-d2) VHH: EVQLVESGGDLVQPGGSLRLSCAASGFTFSTYRMNWVRQAPGKGLEWVASISSRGITTDYAHPVKGRFTVSRDNTKNTLYLQMNSLKPDDAAVYYCATDPSTWYRGTAHWGQGTQVTVSS

>  <quantitative_readout>
7.02

$$$$
>  <binder>
VH B11 (VHH, labeled with the acceptor fluorescent probe d2 (site not stated), Made in E. coli; also called anti-Galphai VH antibody-d2) VHH: EVQLVESGGGLVQPGGSLRLSCAASGFTFNDYWMYWVRQAPGKGLEWVSSINTGGSSTYYSDSVKGRFTTARDNAKNSLYLQLNSLRPEDTAVYYCAKEGPVGPPDYWGQGTQVTVSS

>  <quantitative_readout>
9.00

$$$$
>  <binder>
VH F9 (VHH, labeled with the acceptor fluorescent probe d2 (site not stated), Made in E. coli; also called anti-Galphai VH antibody-d2) VHH: EVQLVESGGGLVQPGGSLRLSCAASGFTFDDYAMNWVRQAAGKGPEWVASISSRGITTDYAHSVKGRFTVSRDNTKNTLYLQMNSLKPDDAAVYYCATDPSTWYRGTAHWGQGTQVTVSS

>  <quantitative_readout>
7.49

$$$$
